measured-on: 5-LOX (Homo sapiens)
Sequence (P09917 whole entry): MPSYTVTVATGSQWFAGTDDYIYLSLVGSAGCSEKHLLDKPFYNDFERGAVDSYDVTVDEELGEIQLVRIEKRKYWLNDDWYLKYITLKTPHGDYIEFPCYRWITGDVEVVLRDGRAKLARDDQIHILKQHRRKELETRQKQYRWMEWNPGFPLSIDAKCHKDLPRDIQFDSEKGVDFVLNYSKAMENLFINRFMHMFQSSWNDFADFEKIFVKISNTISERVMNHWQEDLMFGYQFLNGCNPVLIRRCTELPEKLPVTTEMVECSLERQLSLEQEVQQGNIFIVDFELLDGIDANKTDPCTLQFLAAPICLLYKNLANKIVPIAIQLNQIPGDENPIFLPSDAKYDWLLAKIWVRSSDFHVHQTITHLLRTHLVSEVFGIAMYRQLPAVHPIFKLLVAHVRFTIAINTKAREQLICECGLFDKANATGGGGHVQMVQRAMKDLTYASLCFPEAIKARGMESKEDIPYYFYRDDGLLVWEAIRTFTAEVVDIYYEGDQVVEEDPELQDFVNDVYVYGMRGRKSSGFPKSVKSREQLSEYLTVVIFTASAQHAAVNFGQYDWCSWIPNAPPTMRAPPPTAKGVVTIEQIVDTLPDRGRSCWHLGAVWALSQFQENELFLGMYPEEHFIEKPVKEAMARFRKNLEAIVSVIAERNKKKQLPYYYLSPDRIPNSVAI
experiment-description: Cell-free 5-LOX activity assay
Format: biochemical
Design: made in house; host or cells: Escherichia coli Bl21 (DE3)
setup-conditions: human isolated 5-LOX
# reported IC50; entries follow

Examples with their reported IC50 follow.
COC(=O)CCCn1ccc2cc(NC(=O)NCC34C[C@H]5C[C@@H](C3)C[C@@H](C4)C5)ccc21 :: > 1000 nM
O=C(NCC12C[C@H]3C[C@@H](C1)C[C@@H](C2)C3)Nc1ccc2c(c1)CCN2Cc1ccc(F)cc1 :: 78 nM

What value of IC50 has been recorded for this entry: "CN1CCCN(CCNC(=O)Nc2ccc3c(c2)CCN3Cc2ccc(F)cc2)CC1"
> 1000 nM
